Values compiled from patent US20040024024A1.

# Tgt: Human recombinant MMP-13 (Homo sapiens)
# Construct: made in house; host or cells: baculovirus / insect cells
# Test protocol: In vitro MMP inhibition, IC50 determination (fluorogenic substrate I)
# Assay type: biochemical
# Assay setup: value outside parentheses (Ki in parenthesis)
# Method: Several hydroxamates and salts thereof were analyzed in in vitro assays to determine their ability to inhibit the MMP cleavage of peptide substrates. Inhibition (Ki) and IC50 constants were calculated from the assayed hydroxamate-MMP interactions. […] The assays from which the IC50 determinations were made were performed as follows. […] The assayed hydroxamate samples were, incubated in Microfluorrm White Plates (Dynatech, Chantilly, VA) and analyzed on a Perkin Elmer L550 plate reader (Norwalk, Conn.). […]
The entries below come with measured pIC50 values attached.
pIC50 field: float, defined as -log10 of concentration (mol/L).

These solved cases illustrate the format of a correct answer.
Molecule: CC(C)OCCCNc1ccc(S(=O)(=O)C2(C(=O)NO)CCOCC2)cc1
pIC50: 6.23
--
Molecule: CCCCCN(C)c1ccc(S(=O)(=O)C2(C(=O)NO)CCOCC2)cc1
pIC50: 6.17
--
Molecule: CCOCC(C)(C)COc1ccc(S(=O)(=O)C2(C(=O)NO)CCOCC2)cc1
pIC50: 6.46
--
Molecule: COc1ccc(OCCCCOc2ccc(S(=O)(=O)C3(C(=O)NO)CCOCC3)cc2)cc1
pIC50: 9.05
--
Molecule: O=C(NCCCOc1ccc(S(=O)(=O)C2(C(=O)NO)CCOCC2)cc1)c1ccncc1
pIC50: 8.12

Sample COc1ccc(C(=O)N2CCCC(COc3ccc(S(=O)(=O)C4(C(=O)NO)CCOCC4)cc3)C2)cc1 (centres unmarked) ; pIC50 observed: 6.59

Sample O=C(NO)C1(S(=O)(=O)c2ccc(OCCCSc3nc4c(Cl)cc(Cl)cc4o3)cc2)CCOCC1 ; pIC50 observed: 7.60

Sample O=C(NO)C1(S(=O)(=O)c2ccc(OCCSc3nc4ccccc4s3)cc2)CCOCC1 ; pIC50 observed: 9.30

Sample N#Cc1ccc(C(=O)NCCCOc2ccc(S(=O)(=O)C3(C(=O)NO)CCOCC3)cc2)cc1 ; pIC50 observed: 8.66

Sample O=C(NO)C1(S(=O)(=O)c2ccc(OCCCCCn3cnc4ccccc43)cc2)CCOCC1 ; pIC50 observed: 9.00

Sample COC(=O)c1ccc(C(=O)NCCCOc2ccc(S(=O)(=O)C3(C(=O)NO)CCOCC3)cc2)cc1 ; pIC50 observed: 9.10

Sample O=C(NO)C1(S(=O)(=O)c2ccc(OCCCS(=O)(=O)N3CCOCC3)cc2)CCOCC1 ; pIC50 observed: 7.90

Sample Cc1oc(CCCOc2ccc(S(=O)(=O)C3(C(=O)NO)CCOCC3)cc2)nc1-c1ccccc1 ; pIC50 observed: 8.51

----------
# Tgt: Human recombinant MMP-1 (Homo sapiens)
# Construct: made in house; host or cells: MMP-1-transfected HT-1080 cells (spent media)
# Sequence (P03956 100-469): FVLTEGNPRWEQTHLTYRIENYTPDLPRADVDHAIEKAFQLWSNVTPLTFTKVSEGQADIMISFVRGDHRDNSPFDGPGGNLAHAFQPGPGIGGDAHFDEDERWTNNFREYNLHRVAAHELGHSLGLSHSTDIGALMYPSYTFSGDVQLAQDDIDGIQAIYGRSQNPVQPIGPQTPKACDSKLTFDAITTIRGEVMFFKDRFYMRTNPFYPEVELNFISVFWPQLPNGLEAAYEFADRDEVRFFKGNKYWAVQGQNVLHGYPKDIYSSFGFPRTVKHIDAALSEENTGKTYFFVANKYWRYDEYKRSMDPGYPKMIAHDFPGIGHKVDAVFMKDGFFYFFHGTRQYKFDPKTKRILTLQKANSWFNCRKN
# Test protocol: In vitro MMP inhibition, IC50 determination (fluorogenic substrate I)
# Type: biochemical
# Assay setup: value outside parentheses (Ki in parenthesis)
pIC50: −log10 of the molar value.
The entries below come with measured pIC50 values attached.

These solved cases illustrate the format of a correct answer.
Compound: CN(CCCC(=O)O)c1ccc(S(=O)(=O)C2(C(=O)NO)CCOCC2)cc1
pIC50: < 5.00

Compound: O=C(CCCCOc1ccc(S(=O)(=O)C2(C(=O)NO)CCOCC2)cc1)c1cccs1
pIC50: 5.52

Here is the next item to consider.
Sample O=C(NO)C1(S(=O)(=O)c2ccc(OCCCCCN3CCc4ccccc4C3)cc2)CCOCC1 ; pIC50 observed: < 5.00

----------
# Tgt: Human recombinant MMP-2 (Homo sapiens, UniProt P08253)
# Construct: made in house; host or cells: MMP-2-transfected p2AHT2 cells
# Sequence (P08253 110-660): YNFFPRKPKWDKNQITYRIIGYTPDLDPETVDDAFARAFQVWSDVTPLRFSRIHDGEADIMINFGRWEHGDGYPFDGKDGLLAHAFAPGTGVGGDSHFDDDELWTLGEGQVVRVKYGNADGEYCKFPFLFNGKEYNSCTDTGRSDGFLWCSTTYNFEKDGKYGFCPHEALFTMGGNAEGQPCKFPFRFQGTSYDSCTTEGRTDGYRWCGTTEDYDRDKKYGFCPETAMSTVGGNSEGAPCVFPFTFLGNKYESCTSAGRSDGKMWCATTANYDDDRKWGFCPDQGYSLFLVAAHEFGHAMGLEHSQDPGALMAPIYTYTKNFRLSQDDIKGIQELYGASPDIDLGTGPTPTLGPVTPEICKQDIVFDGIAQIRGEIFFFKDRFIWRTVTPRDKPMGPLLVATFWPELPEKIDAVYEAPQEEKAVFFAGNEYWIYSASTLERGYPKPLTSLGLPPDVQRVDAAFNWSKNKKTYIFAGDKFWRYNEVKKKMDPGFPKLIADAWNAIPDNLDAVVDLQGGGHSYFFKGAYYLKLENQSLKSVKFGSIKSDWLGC
# Test protocol: In vitro MMP inhibition, IC50 determination (fluorogenic substrate I)
# Type: biochemical
# Assay setup: value outside parentheses
pIC50: −log10 of the molar value.
Mark Met for reported pIC50 of 7 or greater; mark Not met for anything smaller.

Take a look at these entries with their results.
Molecule: O=C(COc1ccc(S(=O)(=O)C2(C(=O)NO)CCOCC2)cc1)Nc1cccc(-c2ccccc2)c1
Assigned class: Not met

Molecule: O=C(Cc1csc2ccccc12)NCCOc1ccc(S(=O)(=O)C2(C(=O)NO)CCOCC2)cc1
Assigned class: Met

Molecule: COC(=O)c1ccc(OCCOc2ccc(S(=O)(=O)C3(C(=O)NO)CCOCC3)cc2)cc1
Assigned class: Met

// query For this molecule, is measured pIC50 7 or higher? O=C(Cc1cccs1)NCCOc1ccc(S(=O)(=O)C2(C(=O)NO)CCOCC2)cc1
// result Met

// query For this molecule, is measured pIC50 7 or higher? O=C(NO)C1(S(=O)(=O)c2ccc(OCCCn3nnc(-c4ccc(OC(F)(F)F)cc4)n3)cc2)CCOCC1
// result Not met

// query For this molecule, is measured pIC50 7 or higher? O=C(CCCOc1ccc(S(=O)(=O)C2(C(=O)NO)CCOCC2)cc1)Nc1cccc(-c2ccccc2)c1
// result Met

// query For this molecule, is measured pIC50 7 or higher? Cc1ccc(-c2cccc(CCCOc3ccc(S(=O)(=O)C4(C(=O)NO)CCOCC4)cc3)c2)s1
// result Not met

// query For this molecule, is measured pIC50 7 or higher? CN(C)C(=O)c1cccc(OCCOc2ccc(S(=O)(=O)C3(C(=O)NO)CCOCC3)cc2)c1
// result Met

----------
The entries below come with measured pIC50 values attached.
# Tgt: Human recombinant MMP-9 (Homo sapiens, UniProt P14780)
# Construct: made in house; host or cells: MMP-9-transfected HT1080 cells (spent media)
# Sequence (P14780 107-707 limits assumed): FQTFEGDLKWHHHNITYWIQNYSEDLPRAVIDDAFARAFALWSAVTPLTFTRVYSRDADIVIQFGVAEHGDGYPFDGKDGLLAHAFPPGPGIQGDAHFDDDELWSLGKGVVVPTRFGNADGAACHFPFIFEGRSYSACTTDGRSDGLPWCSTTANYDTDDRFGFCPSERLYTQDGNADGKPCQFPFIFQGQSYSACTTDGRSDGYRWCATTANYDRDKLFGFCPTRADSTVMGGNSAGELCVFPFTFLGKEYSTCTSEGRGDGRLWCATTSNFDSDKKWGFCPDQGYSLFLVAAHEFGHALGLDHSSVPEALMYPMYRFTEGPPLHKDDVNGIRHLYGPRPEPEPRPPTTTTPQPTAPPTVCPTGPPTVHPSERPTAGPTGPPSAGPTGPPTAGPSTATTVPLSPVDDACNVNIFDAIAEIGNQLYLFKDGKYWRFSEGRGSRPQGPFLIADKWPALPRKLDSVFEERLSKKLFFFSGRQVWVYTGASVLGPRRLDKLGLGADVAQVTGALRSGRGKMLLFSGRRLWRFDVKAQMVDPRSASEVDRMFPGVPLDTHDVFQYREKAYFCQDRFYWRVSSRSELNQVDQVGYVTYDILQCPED
# Test protocol: In vitro MMP inhibition, IC50 determination (fluorogenic substrate I)
# Format: biochemical
# Assay setup: value outside parentheses (Ki in parenthesis)
pIC50 field: float, defined as -log10 of concentration (mol/L).

These solved cases illustrate the format of a correct answer.
Smiles data: CN(C)c1ccc(NC(=O)CCCOc2ccc(S(=O)(=O)C3(C(=O)NO)CCOCC3)cc2)cc1
Tgt: Human recombinant MMP-9 (Homo sapiens, UniProt P14780)
Result: 6.02
//
Smiles data: O=C(NO)C1(S(=O)(=O)c2ccc(OCCCSCc3cccc(OC(F)(F)F)c3)cc2)CCOCC1
Tgt: Human recombinant MMP-9 (Homo sapiens, UniProt P14780)
Result: 6.96

Sample O=C(NO)C1(S(=O)(=O)c2ccc(OCCCOc3ccc4ccccc4c3)cc2)CCOCC1 ; pIC50 observed: 6.94

----------
# Tgt: Human recombinant MMP-1 (Homo sapiens, UniProt P03956)
# Construct: made in house; host or cells: MMP-1-transfected HT-1080 cells (spent media)
# Test protocol: In vitro MMP inhibition, Ki determination (fluorogenic substrate II)
# Type: biochemical
# Assay setup: value in parenthesis
pKi: −log10 of the molar value.
The entries below come with measured pKi values attached.

These solved cases illustrate the format of a correct answer.
Molecule: O=C(NO)C1(S(=O)(=O)c2ccc(OCCCc3cccc(-c4ccccc4Cl)c3)cc2)CCOCC1 [Example 162]
pKi: < 5.00
//
Molecule: CC(C)c1ccc(-c2cccc(CCCOc3ccc(S(=O)(=O)C4(C(=O)NO)CCOCC4)cc3)c2)cc1 [Example 160]
pKi: < 5.00

Here is the next item to consider.
Sample COCCN1CCC(C(=O)NO)(S(=O)(=O)c2ccc(OCCCc3nc(-c4ccc(CC(C)C)cc4C)no3)cc2)CC1 [Example 128] ; pKi observed: < 5.00
